# tested target: Fatty acid synthase (Homo sapiens, UniProt P49327)
# assay procedure: FAS thioesterase domain inhibitors, dose response, biochemical, kinetic fluorescence intensity (AID 624326);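 also: rate of fluorescence rise from hydrolysis of a fluorogenic O-methyl fluorescein ester substrate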
# Type: functional
The source made the active and inactive calls.
Each record here notes measured IC50.

The cases that follow already have their IC50 on record.
compound=Oc1c(Cl)cc(Cl)c(Cl)c1Cc1c(O)c(Cl)cc(Cl)c1Cl metric_name=IC50 value_measured="5.68 µM (active)"
compound="COc1cc(OC)c(N2CC(C(=O)NCCC3=CCCCC3)CC2=O)cc1Cl (stereo not given)" metric_name=IC50 value_measured="11.8 µM (active)"
compound=Cc1ccc2[nH]c(SCC(=O)Nc3ccc(F)c([N+](=O)[O-])c3)nc2c1 metric_name=IC50 value_measured="8 µM (active)"
compound=N#CC(CCc1ccccc1[N+](=O)[O-])(CCc1ccccc1[N+](=O)[O-])C(N)=O metric_name=IC50 value_measured="12 µM (active)"

We now examine a further compound.
input: Entry CC1(C(=O)Nc2ccc(Cl)c(Cl)c2)CCN1C(=O)CC1CCCC1 (stereo not given) needs its IC50 filled in; supply it.
output: 4.39 µM (active)

* * *

Each record here notes measured IC50.
# tested target: High affinity choline transporter 1 (Homo sapiens)
# Sequence (Q9GZV3 whole entry): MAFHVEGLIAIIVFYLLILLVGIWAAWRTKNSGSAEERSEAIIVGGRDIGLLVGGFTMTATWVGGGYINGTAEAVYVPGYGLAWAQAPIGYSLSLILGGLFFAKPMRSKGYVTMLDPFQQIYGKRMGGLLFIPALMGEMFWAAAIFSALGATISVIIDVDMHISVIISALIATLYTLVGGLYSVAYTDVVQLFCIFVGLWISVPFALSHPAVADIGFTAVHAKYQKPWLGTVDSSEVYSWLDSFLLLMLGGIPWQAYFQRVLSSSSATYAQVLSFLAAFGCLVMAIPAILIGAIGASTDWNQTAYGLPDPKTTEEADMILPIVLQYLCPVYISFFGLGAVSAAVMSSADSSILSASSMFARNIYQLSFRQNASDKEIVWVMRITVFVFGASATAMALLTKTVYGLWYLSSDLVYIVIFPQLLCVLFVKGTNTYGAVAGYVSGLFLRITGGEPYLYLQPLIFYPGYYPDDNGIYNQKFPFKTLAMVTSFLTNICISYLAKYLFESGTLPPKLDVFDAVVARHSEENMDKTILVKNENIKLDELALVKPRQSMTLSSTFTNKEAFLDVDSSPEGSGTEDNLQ
# assay procedure: CHT inhibitors, dose response, cell-based, 5-point CRC, membrane potential dye (AID 504840)
# Format: functional
Active and inactive are the calls of the source.

The cases that follow already have their IC50 on record.
compound=O=C(NCCCN1CCOCC1)c1ccc(Cl)c(S(=O)(=O)N2CCCCCC2)c1 metric_name=IC50 value_measured="12.3 µM (active)"
compound=Cc1onc(-c2ccccc2)c1C(=O)NC(=S)NNC(=O)c1ccco1 metric_name=IC50 value_measured="15.8 µM (active)"
compound="OC(CNC1Cc2ccccc2C1)c1ccccc1 (stereo not drawn)" metric_name=IC50 value_measured="0.479 µM (active)"

input: Entry C#CC[N+]1(CC#Cc2cccc(C)c2)CCCCC1 needs its IC50 filled in; supply it.
output: 12 µM (active)

input: Entry COc1ccc(C(=O)NC(C)CCn2cccn2)cc1OC1CCN(C(C)C)CC1 (stereo not drawn) needs its IC50 filled in; supply it.
output: 6.86 µM (active)

input: Entry Cn1c(=O)[nH]c2nnc(-c3ccc(Cl)c(Cl)c3)nc2c1=O needs its IC50 filled in; supply it.
output: 11.2 µM (active)

input: Entry O=C1NC(=O)/C(=C/c2cccc3ccccc23)S1 needs its IC50 filled in; supply it.
output: 11 µM (active)

input: Entry Cc1nn2c(N3CCN(C)CC3)c3c(nc2c1-c1ccccc1)CCCC3 needs its IC50 filled in; supply it.
output: 10.1 µM (active)

* * *

Each record here notes measured IC50.
# tested target: UniProtKB P32245
# Sequence (P32245 whole entry): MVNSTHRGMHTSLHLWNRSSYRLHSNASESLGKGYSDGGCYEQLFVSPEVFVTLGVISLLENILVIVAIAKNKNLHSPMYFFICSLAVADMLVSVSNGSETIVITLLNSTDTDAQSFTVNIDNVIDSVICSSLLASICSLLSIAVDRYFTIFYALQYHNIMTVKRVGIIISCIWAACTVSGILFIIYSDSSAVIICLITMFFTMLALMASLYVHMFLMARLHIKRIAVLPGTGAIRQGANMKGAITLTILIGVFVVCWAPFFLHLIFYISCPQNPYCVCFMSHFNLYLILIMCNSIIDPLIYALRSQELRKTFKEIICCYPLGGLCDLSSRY
# assay procedure: MC4R antagonist potency on cAMP, dose response, cell-based, TR-FRET, biased antagonists (AID 602298);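 also: antagonist potency against agonist-stimulated cAMP production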
# Format: functional
Activity calls are given as the source filed them.

The cases that follow already have their IC50 on record.
compound="CC(OC(=O)c1ccc(S(C)(=O)=O)c([N+](=O)[O-])c1)C(=O)NC1C2CC3CC(C2)CC1C3 (stereo unspecified)" value_measured="> 64.6 µM (inactive)"
compound=Cc1nc(N2CCC(C)CC2)c2c(C)c(C(=O)Nc3ccccc3C(F)(F)F)sc2n1 value_measured="> 64.6 µM (inactive)"
compound=O=C(Nc1nccs1)c1cc(S(=O)(=O)N2CCOCC2)c(Cl)cc1Cl value_measured="> 64.6 µM (inactive)"
compound="CC1(C)CC(=O)C(C(C2=C(O)CC(C)(C)CC2=O)c2cccs2)C(=O)C1 (stereo unspecified)" value_measured="29.9 µM (inactive)"
compound="O=C(COC(=O)C(Cc1ccccc1)NC(=O)c1cccs1)NCc1ccccc1 (stereo unspecified)" value_measured="38.6 µM (inactive)"

We now examine a further compound.
input: Entry Cc1nnc(-c2cccc(Br)c2)c2cn(-c3cccc(Br)c3)nc12 needs its IC50 filled in; supply it.
output: > 64.6 µM (inactive)

* * *

# tested target: UniProtKB P42574
# Sequence (P42574 whole entry): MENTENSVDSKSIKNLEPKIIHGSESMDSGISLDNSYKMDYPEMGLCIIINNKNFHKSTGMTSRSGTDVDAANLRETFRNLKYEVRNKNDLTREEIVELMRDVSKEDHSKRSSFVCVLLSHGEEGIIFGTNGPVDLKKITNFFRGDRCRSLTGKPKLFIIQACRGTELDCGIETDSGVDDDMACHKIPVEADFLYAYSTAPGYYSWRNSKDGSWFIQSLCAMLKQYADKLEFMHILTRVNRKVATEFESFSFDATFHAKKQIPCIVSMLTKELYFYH
# Type: functional
The source made the active and inactive calls.
Each record here notes measured IC50.

The cases that follow already have their IC50 on record.
molecule=CSc1ccc(/C=C/C(=O)c2ccc(O)cc2)cc1 tested_target="UniProtKB P42574" metric_name=IC50 value_measured="19.9 µM (active)"
molecule=COc1ccc(NC(=O)c2csc3c2CCCC3)cc1 tested_target="UniProtKB P42574" metric_name=IC50 value_measured="19.2 µM (active)"
molecule=CCO/C=C1\C(=O)N(c2ccccc2)C(=O)c2ccccc21 tested_target="UniProtKB P42574" metric_name=IC50 value_measured="6.63 µM (active)"
molecule=N#Cc1c(N2CCCCC2)nc(N)c2c(N)nc(SCC(=O)O)cc12 tested_target="UniProtKB P42574" metric_name=IC50 value_measured="33.7 µM (active)"
molecule="CN1CC[C@@]2(C)c3cc(O)ccc3N(C)C2O1 (some centres undefined)" tested_target="UniProtKB P42574" metric_name=IC50 value_measured="> 100 µM (inactive)"
molecule=COc1ccccc1-n1c(=O)oc2ccc(Cl)cc2c1=O tested_target="UniProtKB P42574" metric_name=IC50 value_measured="26.9 µM (active)"

input: Entry C=CCn1c2ccccc2c(=O)c2cc(C#Cc3ccccn3)ccc21 needs its IC50 filled in; supply it.
output: 17.5 µM (active)

input: Entry O=C(Nc1ccc(-c2noc(-c3cccs3)n2)cc1)c1cccnc1 needs its IC50 filled in; supply it.
output: 54.8 µM (active)

input: Entry Cc1csc(NC(=O)c2ccc3ccccc3n2)n1 needs its IC50 filled in; supply it.
output: 6.96 µM (active)

* * *

# tested target: Voltage-gated N-type calcium channel alpha-1B subunit/Amyloid beta A4 precursor protein-binding family A member 1 (Homo sapiens, UniProt Q00975+Q02410)
# Sequence (Q00975 whole entry): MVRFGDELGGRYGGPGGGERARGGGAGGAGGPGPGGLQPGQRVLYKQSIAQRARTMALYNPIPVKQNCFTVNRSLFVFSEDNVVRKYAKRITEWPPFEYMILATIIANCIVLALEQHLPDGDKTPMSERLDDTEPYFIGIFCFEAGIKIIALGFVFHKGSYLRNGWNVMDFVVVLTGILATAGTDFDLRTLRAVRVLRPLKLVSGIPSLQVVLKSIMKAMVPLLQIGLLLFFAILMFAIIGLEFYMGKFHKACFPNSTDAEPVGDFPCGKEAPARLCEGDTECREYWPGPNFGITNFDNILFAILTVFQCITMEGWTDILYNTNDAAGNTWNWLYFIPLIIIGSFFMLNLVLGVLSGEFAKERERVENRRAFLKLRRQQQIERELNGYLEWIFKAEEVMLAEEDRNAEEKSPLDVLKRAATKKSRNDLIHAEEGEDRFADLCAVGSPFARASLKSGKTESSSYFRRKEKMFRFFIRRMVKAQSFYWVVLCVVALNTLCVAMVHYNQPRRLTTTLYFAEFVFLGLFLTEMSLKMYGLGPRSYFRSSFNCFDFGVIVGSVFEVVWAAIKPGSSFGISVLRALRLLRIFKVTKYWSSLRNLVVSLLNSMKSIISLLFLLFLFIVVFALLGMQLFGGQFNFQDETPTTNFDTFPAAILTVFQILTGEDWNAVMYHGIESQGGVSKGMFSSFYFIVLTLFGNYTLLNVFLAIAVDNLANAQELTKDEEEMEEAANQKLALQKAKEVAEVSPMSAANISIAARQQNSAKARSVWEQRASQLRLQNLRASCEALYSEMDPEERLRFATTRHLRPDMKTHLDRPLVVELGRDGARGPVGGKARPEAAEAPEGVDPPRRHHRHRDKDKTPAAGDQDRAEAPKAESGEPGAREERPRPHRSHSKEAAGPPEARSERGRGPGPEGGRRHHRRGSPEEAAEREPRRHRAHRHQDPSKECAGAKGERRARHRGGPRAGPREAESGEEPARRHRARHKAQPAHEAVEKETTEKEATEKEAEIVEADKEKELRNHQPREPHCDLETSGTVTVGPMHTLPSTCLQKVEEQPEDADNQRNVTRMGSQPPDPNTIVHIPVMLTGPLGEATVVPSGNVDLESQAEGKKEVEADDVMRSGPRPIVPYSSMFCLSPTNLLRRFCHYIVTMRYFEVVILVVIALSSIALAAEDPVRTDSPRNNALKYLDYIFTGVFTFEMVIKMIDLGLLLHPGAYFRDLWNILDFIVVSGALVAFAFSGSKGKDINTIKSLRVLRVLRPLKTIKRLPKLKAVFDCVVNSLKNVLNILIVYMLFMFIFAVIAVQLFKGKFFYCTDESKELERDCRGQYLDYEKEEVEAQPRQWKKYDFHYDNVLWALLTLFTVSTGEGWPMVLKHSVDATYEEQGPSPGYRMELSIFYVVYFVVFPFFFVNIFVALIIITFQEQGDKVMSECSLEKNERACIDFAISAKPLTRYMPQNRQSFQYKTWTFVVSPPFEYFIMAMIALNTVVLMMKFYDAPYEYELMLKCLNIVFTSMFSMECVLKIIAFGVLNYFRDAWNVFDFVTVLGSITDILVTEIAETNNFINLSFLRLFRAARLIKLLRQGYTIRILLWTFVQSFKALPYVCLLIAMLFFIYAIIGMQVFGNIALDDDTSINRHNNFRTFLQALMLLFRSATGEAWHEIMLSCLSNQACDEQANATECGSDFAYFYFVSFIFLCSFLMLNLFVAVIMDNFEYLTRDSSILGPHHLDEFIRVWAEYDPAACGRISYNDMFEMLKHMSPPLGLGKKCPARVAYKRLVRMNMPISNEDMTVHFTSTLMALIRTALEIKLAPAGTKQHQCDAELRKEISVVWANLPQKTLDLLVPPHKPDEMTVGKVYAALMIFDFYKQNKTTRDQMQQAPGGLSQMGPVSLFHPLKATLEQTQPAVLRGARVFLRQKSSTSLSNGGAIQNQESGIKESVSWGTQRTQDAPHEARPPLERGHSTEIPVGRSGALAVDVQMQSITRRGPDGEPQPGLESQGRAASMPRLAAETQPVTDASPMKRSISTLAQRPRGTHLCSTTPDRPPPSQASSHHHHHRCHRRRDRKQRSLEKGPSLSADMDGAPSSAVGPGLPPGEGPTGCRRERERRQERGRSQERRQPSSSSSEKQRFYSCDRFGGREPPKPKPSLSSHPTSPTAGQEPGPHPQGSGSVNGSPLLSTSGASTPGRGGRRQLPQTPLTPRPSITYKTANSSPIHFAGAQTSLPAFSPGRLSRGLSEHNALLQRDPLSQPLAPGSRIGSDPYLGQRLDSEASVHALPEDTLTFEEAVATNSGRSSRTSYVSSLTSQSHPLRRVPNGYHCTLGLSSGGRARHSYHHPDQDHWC
# Sequence (Q02410 whole entry): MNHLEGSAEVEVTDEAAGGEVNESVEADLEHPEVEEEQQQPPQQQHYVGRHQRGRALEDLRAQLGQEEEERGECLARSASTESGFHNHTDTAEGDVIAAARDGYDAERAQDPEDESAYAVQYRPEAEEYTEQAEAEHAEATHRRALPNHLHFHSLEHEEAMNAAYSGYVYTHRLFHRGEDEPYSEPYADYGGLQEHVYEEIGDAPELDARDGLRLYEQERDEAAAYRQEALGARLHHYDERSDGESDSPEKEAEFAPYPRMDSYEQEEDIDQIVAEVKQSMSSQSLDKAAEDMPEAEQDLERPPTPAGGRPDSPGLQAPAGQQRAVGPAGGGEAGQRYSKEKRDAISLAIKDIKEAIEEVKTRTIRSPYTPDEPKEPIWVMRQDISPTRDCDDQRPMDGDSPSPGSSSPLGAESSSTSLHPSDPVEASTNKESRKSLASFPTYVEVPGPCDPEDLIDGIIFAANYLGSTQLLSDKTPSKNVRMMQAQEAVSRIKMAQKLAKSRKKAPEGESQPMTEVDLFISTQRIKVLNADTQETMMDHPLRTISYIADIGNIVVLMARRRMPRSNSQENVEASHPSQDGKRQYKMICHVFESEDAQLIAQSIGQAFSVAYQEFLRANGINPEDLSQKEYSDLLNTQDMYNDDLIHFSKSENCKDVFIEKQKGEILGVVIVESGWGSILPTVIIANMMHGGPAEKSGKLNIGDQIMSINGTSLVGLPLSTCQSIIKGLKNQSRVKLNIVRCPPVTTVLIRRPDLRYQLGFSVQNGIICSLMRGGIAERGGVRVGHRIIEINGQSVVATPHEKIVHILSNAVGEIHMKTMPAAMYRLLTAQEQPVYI
# Assay type: protein assay
Activity calls are given as the source filed them.
metric name: IC50

The cases that follow already have their IC50 on record.
molecular_string=O=C(Nc1ccc2oc(-c3cccc4ccccc34)nc2c1)c1nnc[nH]1 value_measured="2.92 µM (active)"
molecular_string=COCCn1c(SCC(=O)Nc2ccc(C(N)=O)cc2)nc2c3ccccc3nc-2c1O value_measured="6.77 µM (active)"
molecular_string=CC1(C)[N+]([O-])=c2ccc([N+](=O)[O-])cc2=[N+]1[O-].NO value_measured="22.1 µM (active)"

input: Entry COc1ccc(NC(=O)c2cc(-c3ccco3)nc3ccccc23)cc1S(=O)(=O)N1CCOCC1 needs its IC50 filled in; supply it.
output: 2.59 µM (active)

input: Entry O=C1C([N+](=O)[O-])=C(O)c2cccc3cccc1c23 needs its IC50 filled in; supply it.
output: > 56.8 µM (not active)

* * *

Each record here notes measured AC50.
# tested target: UniProt P11712

The cases that follow already have their AC50 on record.
compound=Cc1cnc(NC(=O)CCCc2nc3ccccc3s2)s1 metric_name=AC50 value_measured="5.62 µM (inconclusive)"
compound="CCOc1cccc(C(=O)C2=C(O)C(=O)N(Cc3ccco3)C2c2ccncc2)c1 (stereo unspecified)" metric_name=AC50 value_measured="14.1 µM (inconclusive)"
compound=CCOC(=O)Nc1ccc(NCc2ccc(F)cc2)nc1N metric_name=AC50 value_measured="25.1 µM (inconclusive)"
compound=COc1ccc(C(=O)Nc2cc(C(C)=O)c(/C=C/N(C)C)oc2=O)cc1 metric_name=AC50 value_measured="22.4 µM (inconclusive)"
compound="CC(NC(=O)CCSc1nc(-c2ccco2)cc(C(F)(F)F)n1)c1ccccc1 (stereo unspecified)" metric_name=AC50 value_measured="15.8 µM (inconclusive)"
compound=N=C(N)NC(=O)Cc1c(Cl)cccc1Cl metric_name=AC50 value_measured="31.6 µM (inconclusive)"

input: Send back UniProt P11712 AC50 of Nc1ccc(/N=N\c2ccc(-c3ccc(O)cc3)cc2)c2ccc(S(=O)(=O)O)cc12 only.
output: 5.01 µM (inconclusive)

* * *

What follows is a collection of AC50 values obtained with Cytochrome P450 3A4 (Homo sapiens).
Sequence (P08684 whole entry): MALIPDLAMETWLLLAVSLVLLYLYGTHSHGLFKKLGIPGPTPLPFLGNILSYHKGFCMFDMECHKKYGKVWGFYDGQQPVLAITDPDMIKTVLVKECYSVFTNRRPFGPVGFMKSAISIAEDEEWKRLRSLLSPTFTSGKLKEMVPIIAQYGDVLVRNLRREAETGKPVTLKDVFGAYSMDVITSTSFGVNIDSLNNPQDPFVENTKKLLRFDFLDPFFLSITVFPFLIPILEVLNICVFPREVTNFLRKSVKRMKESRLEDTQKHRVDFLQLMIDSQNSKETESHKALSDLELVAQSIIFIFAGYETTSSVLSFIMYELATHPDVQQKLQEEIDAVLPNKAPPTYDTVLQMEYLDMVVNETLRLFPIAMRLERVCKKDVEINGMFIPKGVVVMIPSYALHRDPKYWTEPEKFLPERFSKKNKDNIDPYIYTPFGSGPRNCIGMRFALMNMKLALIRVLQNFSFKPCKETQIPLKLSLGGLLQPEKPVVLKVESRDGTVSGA

The cases that follow already have their AC50 on record.
compound=O=c1cnc2cncnc2n1Cc1ccccc1 metric_name=AC50 value_measured="20 µM (inconclusive)"
compound=COC(=O)c1ccccc1NC(=O)c1ccc(COc2ccc(C)c(C)c2)o1 metric_name=AC50 value_measured="1.41 µM (inconclusive)"
compound=Cc1cccc(NC(S)=Nc2ccc(Br)cc2)c1 metric_name=AC50 value_measured="25.1 µM (inconclusive)"
compound=Cc1ccc(C)n1N1C(=O)/C(=C\c2ccc(Cl)cc2)SC1=S metric_name=AC50 value_measured="15.8 µM (inconclusive)"
compound=CCCCNc1cc(=O)oc2ccccc12 metric_name=AC50 value_measured="17.8 µM (inconclusive)"
compound="CN1[C@@H]2CC[C@H]1CC(O[C@@H](c1ccccc1)c1ccccc1N)C2 (stereo not given in full)" metric_name=AC50 value_measured="12.6 µM (inconclusive)"
compound=C=CCN1CCc2cccc3c2[C@@H]1Cc1ccc(O)c(O)c1-3 metric_name=AC50 value_measured="31.6 µM (inconclusive)"
compound=CCn1c(S)nnc1-c1ccc2ncccc2c1 metric_name=AC50 value_measured="3.98 µM (inconclusive)"
compound=Cc1ccccc1-c1nc(-c2ccc(NC(=O)c3cccs3)cc2)no1 metric_name=AC50 value_measured="39.8 µM (inconclusive)"
compound="Cc1ccc(C2(C)NC(=O)N(CC(=O)Nc3cc(C)on3)C2=O)cc1 (stereo not given)" metric_name=AC50 value_measured="25.1 µM (inconclusive)"

input: Send back Cytochrome P450 3A4 (Homo sapiens) AC50 of Cn1c(=O)c(-c2ccc(Cl)cc2)nc2cnc(N3CCNCC3)nc21 only.
output: 20 µM (inconclusive)

input: Send back Cytochrome P450 3A4 (Homo sapiens) AC50 of COc1ccccc1CN1CC[C@@]2(CCCN(S(C)(=O)=O)C2)C1 only.
output: 20 µM (inconclusive)

input: Send back Cytochrome P450 3A4 (Homo sapiens) AC50 of COc1ccc(N2CCN(CCNC(=O)c3c(C)cc(=O)oc3C)CC2)cc1 only.
output: 14.1 µM (inconclusive)

input: Send back Cytochrome P450 3A4 (Homo sapiens) AC50 of CC1=C(C(=O)OCc2ccccc2)C(c2ccc(Cl)cc2)NC(=O)N1CCCCCC(=O)O (stereo not given) only.
output: 10 µM (inconclusive)

input: Send back Cytochrome P450 3A4 (Homo sapiens) AC50 of CCOc1cccc(C(=O)C2=C(O)C(=O)N(Cc3ccco3)C2c2ccncc2)c1 (stereo not given) only.
output: 22.4 µM (inconclusive)

input: Send back Cytochrome P450 3A4 (Homo sapiens) AC50 of COc1ccccc1NC(=O)[C@H](COCc1ccccc1)NC(=O)OC(C)(C)C only.
output: 39.8 µM (inconclusive)

input: Send back Cytochrome P450 3A4 (Homo sapiens) AC50 of CCOc1cc(/C=N/n2cnnc2)c(Br)cc1O only.
output: 14.1 µM (inconclusive)

input: Send back Cytochrome P450 3A4 (Homo sapiens) AC50 of O=c1c(-c2ccc(Cl)cc2)[n+]([O-])c2ccccc2n1OCc1ccccn1 only.
output: 7.08 µM (inconclusive)

input: Send back Cytochrome P450 3A4 (Homo sapiens) AC50 of Cc1ccc(NCCC(=O)c2ccc(Cl)cc2)cc1 only.
output: 12.6 µM (inconclusive)

input: Send back Cytochrome P450 3A4 (Homo sapiens) AC50 of CCOC(=O)C(C)Sc1ncc(OC)c(Sc2ccc(Cl)cc2)n1 (stereo not given) only.
output: 20 µM (inconclusive)

From: ChEMBL document CHEMBL1201862
